# GI50 annotations
test system: PC-3 prostate; experiment: NCI tumour cell line growth inhibition, 48 h

Sample answers from the record:
{"columns": ["MOLECULE", "VALUE_OBSERVED"],
 "data": [
  ["CC(C)[C@H](C(=O)O[C@@H]1/C=C/C(=O)O[C@@H](C)CCC/C=C/[C@@H]2C[C@H](O)C[C@H]21)N(C)C", "10.9 µM"],
  ["COc1cc(NC(C)CCCN2C(=O)c3ccccc3C2=O)c2ncccc2c1OC (centres undefined)", "24.9 µM"],
  ["O=C1NC(=N[C@H](CO)c2ccccc2)S/C1=C\\c1ccc2ncccc2c1", "4.07 µM"]
]}

Consider now this further molecule.
Reported GI50 ( `C#Cc1ccc(-n2c(/C=C/c3ccc4ccccc4c3)nc3ncccc3c2=O)cc1` ) = 2.35 µM

* * *

# TGI annotations
system: COLO 205 colon; assay: NCI tumour cell line growth inhibition, 48 h
Write down the numeric answer in µM and omit the unit.

Reported TGI ( CC(C)COC(c1ccc2c(c1)OCO2)C(C)Br (stereo not drawn) ) = 49.7

Reported TGI ( `CCc1ccc2c(c1)C(=O)c1c-2n(CCCN)c(=O)c2cc([N+](=O)[O-])ccc12` ) = 2.51

Reported TGI ( OCCCCCCCCCCCOc1ccc(C2OCC3(CC=CCC3)CO2)cc1 (stereo not drawn) ) = 46.8

Reported TGI ( CCOC(=O)C(NC(=O)c1cccc(Cl)c1)(N1CCN(c2cc3c(cc2F)c(=O)c(C(=O)O)cn3C2CC2)CC1)C(F)(F)F (stereo not drawn) ) = 30.2

Reported TGI ( `CN1CCN(c2ccc(Nc3ncc4cc5n(c4n3)C3(CCCCC3)CNC5=O)nc2)CC1` ) = 11.3

Reported TGI ( `CCCc1n(Cc2ccc3ccccc3n2)cc[n+]1Cc1ccc2ccccc2n1` ) = 2.21

Reported TGI ( `Cn1cnc([N+](=O)[O-])c1Sc1nc2ccc([N+](=O)[O-])cc2[nH]1` ) = 23.4

* * *

system: SNB-19 CNS; test: NCI tumour cell line growth inhibition, 48 h
# GI50 annotations

Sample answers from the record:
{"columns": ["ITEM_SMILES", "VALUE_OBSERVED"],
 "data": [
  ["N[C@@H](CSSC[C@H](N)C(=O)N1CCn2cc(-c3ccccc3)nc2[C@@H]1CC1CCCCC1)C(=O)N1CCn2cc(-c3ccccc3)nc2[C@@H]1CC1CCCCC1", "1360 nM"],
  ["COc1cc(-c2nn(-c3cccc(NC(=O)CCN4CCN(C)CC4)c3)cc2-c2ccncc2)ccc1Cl", "2010 nM"],
  ["Cc1cc(C#Cc2ccccc2)ccc1-n1c(/C=C/c2cc(O)ccc2O)nc2ccccc2c1=O", "1620 nM"]
]}

Tested on SNB-19 CNS: `C[C@H](c1ccccc1)N(CCC(=O)O)C(=O)CCN(C(=O)CCN(C(=O)CCN[C@H](C)c1ccccc1)[C@H](C)c1ccccc1)[C@H](C)c1ccccc1` . Observed GI50: > 100000 nM

* * *

test system: HCT-15 colon; assay: NCI tumour cell line growth inhibition, 48 h
ENDPOINT: TGI

{"columns": ["MOLECULE", "ENDPOINT", "VALUE_OBSERVED"],
 "data": [
  ["CN(C)c1ccc(/C=c2/c3ccccc3n3c2cc(NC(=O)NCCC[N+](C)(C)C)[n+]3C)cc1", "TGI", "> 100 µM"],
  ["CC1OC(OCC2OC(Oc3ccc(C4CC(=O)c5c(O)cc(O)cc5O4)cc3O)C(O)C(O)C2O)C(O)C(O)C1O (stereo unspecified)", "TGI", "> 100 µM"]
]}

Consider now this further molecule.
Reported TGI ( `NC(=O)c1ncn(Cc2ccccc2)c1CNC(N)=S` ) = > 100 µM

* * *

tested on: MOLT-4 leukemia; assay: NCI tumour cell line growth inhibition, 48 h; in the data active = GI50 below about 0.43 µM; inactive = the rest
API: response.call in true (1) = active, false (0) = inactive

{"columns": ["MOLECULE", "CLASS_NAME"],
 "data": [
  ["OCc1ccc(N(Cc2ccc(F)cc2)CC2CCC2)cc1Cl", "false (0)"],
  ["N[C@@H](CSSC[C@H](N)C(=O)N1CCn2cc(-c3ccccc3)nc2[C@@H]1CC1CCCCC1)C(=O)N1CCn2cc(-c3ccccc3)nc2[C@@H]1CC1CCCCC1", "false (0)"],
  ["COC(=O)[C@]12CC[C@@H](C)[C@H](C)[C@@H]1C1=CC[C@@H]3[C@@]4(C)CC(=O)[C@H](O)[C@@](C)(CO)[C@@H]4C(=O)C[C@@]3(C)[C@]1(C)CC2", "false (0)"],
  ["FC(F)(F)c1ccc(NCc2nc3ccccc3[nH]2)cc1", "false (0)"]
]}

### Prompt For `Cc1cn2c(/C=C3/C(=O)Nc4ccc(Cl)cc43)c(C)nc2s1` , which call appears in the assay record?
### Response true (1)

### Prompt For COC1=CC2CCN3Cc4cc5c(cc4C(C1O)C23)OCC5 (centres undefined) , which call appears in the assay record?
### Response false (0)

### Prompt For `C#Cc1ccc(-n2c(/C=C/c3ccc4ccccc4c3)nc3ncccc3c2=O)cc1` , which call appears in the assay record?
### Response false (0)

### Prompt For `Fc1ccc(-c2c(-c3ccncc3)[nH]c3nccnc23)cc1` , which call appears in the assay record?
### Response false (0)

### Prompt For `CCOC(=O)c1cc(-c2ccccc2)[nH]c1N/N=C/c1c(Cl)cccc1Cl` , which call appears in the assay record?
### Response false (0)

* * *

tested on: SF-268 CNS; test: NCI tumour cell line growth inhibition, 48 h
# TGI annotations

{"columns": ["COMPOUND", "TGI"],
 "data": [
  ["Oc1cccc(-c2nc(-c3ccccc3)[nH]c2-c2ccncc2)c1", "> 25 µM"],
  ["CN1CCN(c2ccc(Nc3ncc4cc5n(c4n3)C3(CCCCC3)CNC5=O)nc2)CC1", "4.94 µM"],
  ["COc1cc(/C=C/c2ccccn2)cc(OC)c1OC", "> 10 µM"],
  ["O=c1oc2c/c(=C\\c3ccccn3)c(=O)c3cccc1c3-2", "> 100 µM"],
  ["O=c1c2cc(S(=O)(=O)O)ccc2nc(COc2ccc(Oc3ccc(Cl)cc3Cl)cc2)n1C(=S)Nc1ccc(Cl)cc1", "31.3 µM"],
  ["O=C(O)COc1ccc(C(=O)/C(SS/C(C(=O)c2ccc(OCC(=O)O)c(Cl)c2Cl)=C2\\C=C(c3ccccc3Cl)SS2)=C2/C=C(c3ccccc3Cl)SS2)c(Cl)c1Cl", "> 88.3 µM"],
  ["CC(C)COC(c1ccc2c(c1)OCO2)C(C)Br (stereo not given)", "59.7 µM"],
  ["CC1CC(Br)C(=O)O1 (stereo not given)", "> 100 µM"],
  ["O=C1NC(=O)C(c2c[nH]c3ccccc23)=C1c1ccccc1", "> 25 µM"]
]}

Reported TGI ( `C=C(CO)[C@H]1Oc2ccc(C(C)=O)cc2[C@@H]1O` ) = > 100 µM

* * *

system: NCI-H522 lung; test: NCI tumour cell line growth inhibition, 48 h
# TGI annotations

{"columns": ["COMPOUND", "TGI"],
 "data": [
  ["CSc1nc(Br)nc2ncn(C3CC(Oc4ccc(C)cc4)C(COc4ccc(C)cc4)O3)c12 (centres undefined)", "> 100 µM"],
  ["O=S(=O)(Oc1ccc2ccccc2c1-c1c(OS(=O)(=O)C(F)(F)F)ccc2ccccc12)C(F)(F)F", "> 100 µM"],
  ["O=C(Nc1ncc([N+](=O)[O-])s1)c1ccccc1O", "28.3 µM"]
]}

Consider now this further compound.
Reported TGI ( CC(=O)O[C@H]1C(=O)[C@@]2(C)C(C(OC(=O)c3ccccc3)[C@]3(O)CC(OC(=O)C(O)C(NC(=O)c4ccccc4)c4cccc(Cl)c4)C(C)=C1C3(C)C)[C@]1(OC(C)=O)CO[C@@H]1C[C@@H]2O (some centres undefined) ) = > 10 µM

* * *

# GI50 annotations
tested on: SF-268 CNS; test: NCI tumour cell line growth inhibition, 48 h

Sample answers from the record:
{"columns": ["ITEM_SMILES", "GI50"],
 "data": [
  ["O=C1/C(=C/c2ccccc2[N+](=O)[O-])COc2ccc(O)c(O)c21", "1.18 µM"],
  ["COc1c2ccccc2c(O)c2c(=O)ccn(C)c12", "16.5 µM"],
  ["CCCc1n(Cc2ccc3ccccc3n2)cc[n+]1Cc1ccc2ccccc2n1", "2.3 µM"]
]}

Reported GI50 ( `Fc1ccc(-c2c(-c3ccncc3)[nH]c3nccnc23)cc1` ) = 10.9 µM

Reported GI50 ( `Cc1cn2c(/C=C3/C(=O)Nc4ccc(Cl)cc43)c(C)nc2s1` ) = 12.5 µM

* * *

tested on: HCT-15 colon; assay: NCI tumour cell line growth inhibition, 48 h
ENDPOINT: TGI

Sample answers from the record:
{"columns": ["COMPOUND", "VALUE_OBSERVED"],
 "data": [
  ["CN1CCc2cc3c4cc2C1Cc1ccc(cc1)Oc1cc(ccc1O)CC1c2c(cc(O)c(c2O4)O3)CCN1C (configuration not stated)", "4.27 µM"],
  ["CNc1ncnc2c1cnn2CCCCO", "> 100 µM"],
  ["COC(=O)N/N=C(/c1nc2ccc([N+](=O)[O-])cc2[nH]c1=O)C(O)c1ccc(OC)c(OC)c1 (configuration not stated)", "> 78.4 µM"],
  ["Cc1ccc(S(=O)(=O)CC2(Br)CCc3ccccc3C2=O)cc1 (configuration not stated)", "42.5 µM"],
  ["CSc1nc(Br)nc2ncn(C3CC(Oc4ccc(C)cc4)C(COc4ccc(C)cc4)O3)c12 (configuration not stated)", "> 100 µM"]
]}

Reported TGI ( `O=C(O)c1nc2ccccc2nc1NCc1ccc(F)cc1` ) = 42.8 µM

Reported TGI ( Nc1nc2ncn(CC(O)COC(=O)c3ccccc3)c2c(=O)[nH]1 (configuration not stated) ) = > 100 µM

Reported TGI ( `O=C(O)c1cn(C2CC2)c2cc(N3CCN(Cc4ccc5ccccc5c4O)CC3)c(F)cc2c1=O` ) = > 100 µM

Reported TGI ( CC(=O)NC(CCCNC(=O)OCc1ccccc1)C(=O)O (configuration not stated) ) = > 100 µM

Reported TGI ( CCN1C(=O)N(CC)C2C1NN=c1s/c(=C\c3ccc(OC)cc3)c(=O)n12 (configuration not stated) ) = > 100 µM

Reported TGI ( O=C1c2ccccc2C(=O)c2c1ccc1c2N=C(c2ccc(Br)cc2)CC(c2cccc3ccccc23)N1 (configuration not stated) ) = > 100 µM

Reported TGI ( `NCCNCCNc1ccc(NCCNCCN)c2c1C(=O)c1c(O)ccc(O)c1C2=O` ) = > 100 µM
